Molecular target: human NMUR2 (Homo sapiens)
Construct: expressed in transfected cells
Sequence (Q9GZQ4 whole entry): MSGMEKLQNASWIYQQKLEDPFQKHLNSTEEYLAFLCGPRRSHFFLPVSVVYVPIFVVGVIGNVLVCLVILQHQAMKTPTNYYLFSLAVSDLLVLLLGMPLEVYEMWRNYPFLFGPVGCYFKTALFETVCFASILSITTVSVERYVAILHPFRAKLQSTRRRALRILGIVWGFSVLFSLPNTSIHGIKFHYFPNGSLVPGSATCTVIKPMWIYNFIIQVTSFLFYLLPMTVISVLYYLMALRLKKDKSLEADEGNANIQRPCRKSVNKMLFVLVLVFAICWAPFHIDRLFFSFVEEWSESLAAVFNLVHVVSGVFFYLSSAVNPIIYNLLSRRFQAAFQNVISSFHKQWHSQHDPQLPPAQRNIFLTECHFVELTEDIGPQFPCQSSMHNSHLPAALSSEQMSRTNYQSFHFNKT
Assay: Ca influx assay using CHO cells expressing human NMUR2
Type: cell-based
Settings: CHO cells stably expressing human NMUR2; intracellular Ca elevation, FLIPR Tetra; relative to 1 μM porcine NMU-8; read-out: hNMUR2 EC50
Non-standard residues stand in square brackets, D forms with d. Primed or numbered codes have the meaning given here. *: point of attachment. Acetyl(2-(piperazin-1-yl)) = O=C(CN1CCNCC1)*; 2Nal = N[C@@H](Cc1ccc2ccccc2c1)C(=O)O; Pic(4) = not defined here; NMeA = CN[C@@H](C)C(=O)O; Ahx = NCCCCCC(=O)O
What pEC50 was measured for each of the following?
Give bare numbers, as −log10 of the molar value.

Please report pEC50 for every entry that follows.
1. PEG20k(AL)-Acp0,Nal(2)2,NMeAla6-NMU-8 ({PEG20k(AL)-Ahx}-Y[2Nal]LFR[NMeA]RN-NH2) [Compound G, PEG20k(AL)-Acp-Tyr-Nal(2)-Leu-Phe-Arg-NMeAla-Arg-Asn-NH2]
2. PEG20k(AL)-NpipAc0,Nal(2)2,Ala6-NMU-8 ({PEG20k(AL)-Acetyl(2-(piperazin-1-yl))}-Y[2Nal]LFRARN-NH2) [Compound D, PEG20k(AL)-NpipAc-Tyr-Nal(2)-Leu-Phe-Arg-Ala-Arg-Asn-NH2]
3. PEG20k(AL)-Pic(4)0,Nal(2)2,NMeAla6-NMU-8 ({PEG20k(AL)-Pic(4)}-Y[2Nal]LFR[NMeA]RN-NH2; reading uncertain) [Compound F, PEG20k(AL)-Pic(4)-Tyr-Nal(2)-Leu-Phe-Arg-NMeAla-Arg-Asn-NH2]
4. PEG20k(AL)-PEG(2)0,Nal(2)2,NMeAla6-NMU-8 ({PEG20k(AL)-PEG(2)}-Y[2Nal]LFR[NMeA]RN-NH2) [PEG20k(AL)-PEG(2)-Tyr-Nal(2)-Leu-Phe-Arg-NMeAla-Arg-Asn-NH2]

Return:
1: 8.23; 2: 8.06; 3: 7.27; 4: 7.41
